Molecular target: human GABA A receptor α5β3γ2 (Homo sapiens, UniProt P18507+P31644)
Construct: expressed in transfected cells; host or cells: HEK293 (transiently transfected), membranes
Experiment: [3H]flumazenil competition binding to HEK293 cell membranes expressing human GABA A α5β3γ2
Details: displacement of [3H]flumazenil (0.5 nM), human α5β3γ2 transiently transfected in HEK293, means of two determinations; read-out: Ki[nM] hα5
recordedEndpoint: Ki (nM)

Worked examples, 8 compounds total:
# smilesRepresentation, unitOfMeasure, Ki
data = [
    ("Cc1ccc(C#Cc2c(-c3ccccc3)noc2C)nn1", "nM", 26.6),
    ("Cc1onc(-c2ccccc2)c1C#Cc1cnc(N)cn1", "nM", 37.2),
    ("Cc1onc(-c2ccccc2)c1C#Cc1ccc(N)cn1", "nM", 55.7),
    ("Cc1onc(-c2ccccc2)c1C#Cc1cnc2ccccc2n1", "nM", 84.4),
    ("Cc1onc(-c2ccccc2)c1C#Cc1ncc(-c2ccccc2)n1C", "nM", 28.4),
    ("Cc1onc(-c2ccccc2)c1C#Cc1cccc(Cl)n1", "nM", 71.9),
    ("Cc1onc(-c2ccccc2)c1C#Cc1cccc(C(=O)NC2CCOCC2)c1", "nM", 91.6),
    ("Cc1csc(NC(=O)c2ccnc(C#Cc3c(-c4ccccc4)noc3C)c2)n1", "nM", 90.1),
]

[A] Cc1ccnc(C#Cc2c(-c3ccccc3)noc2C)c1
[B] Cc1onc(-c2ccccc2)c1C#Cc1cc(C(=O)NC2CCOCC2)ccn1
[C] COC(=O)c1ccccc1C#Cc1c(-c2ccccc2)noc1C
Descending sort on Ki required. Your task in answering is to list the labels in the requested order.
C, A, B

[P] Cc1onc(-c2ccccc2)c1C#Cc1cnccn1
[Q] Cc1cccc(C#Cc2c(-c3ccccc3)noc2C)n1
[R] Cc1onc(-c2ccccc2)c1C#Cc1nc(C)n(-c2cc(F)cc(F)c2)c1C
[S] CCOC(=O)c1nc(C)sc1C#Cc1c(-c2ccccc2)noc1C
With regard to Ki, arrange the entries in ascending order, please. Quick reminder: the answer is the labels in the order asked.
R, Q, P, S
(R: 23.5 nM, Q: 39.3 nM, P: 59.2 nM, S: 85.2 nM)

[I] Cc1onc(-c2ccccc2)c1C#Cc1cc(-c2ccc(F)cc2)n(C)n1
[II] Cc1cccnc1C#Cc1c(-c2ccccc2)noc1C
[III] Cc1onc(-c2ccccc2)c1C#Cc1cncc(N)n1
Please rank these compounds by Ki in descending order. Write out the labels following the order that was asked for.
I, II, III
(I: 52.6 nM, II: 28.9 nM, III: 18.3 nM)

[I] Cc1onc(-c2ccc(Cl)cc2)c1C#Cc1ccccn1
[II] Cc1onc(-c2ccccc2)c1C#Cc1cc(C(F)(F)F)ccn1
Pick one: I or II . Which has the bigger Ki number? Use the label to indicate which entry you chose.
I
